# System: 653999-131-R-J2-PDC complex spheroids, growth inhibition;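 also: spheroids exposed to the agents for seven days before the readout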
# protocol-summary: Anticancer human tumor 653999-131-R-J2-PDC patient-derived lung adenocarcinoma cell line growth inhibition [RAS]
# condition-notes: second compound 0.0949 µM; first compound 0.0316 µM; active compounds read low
Hi! Just check whether viability, T/C is below 50%. Below gives 1, equal or above gives 0.

Determine whether this compound shows viability, T/C lower than 50% (ties excluded): CC(=O)OC12COC1CC(O)C1(C)C(=O)C(O)C3=C(C)C(OC(=O)C(O)C(NC(=O)OC(C)(C)C)c4ccccc4)CC(O)(C(OC(=O)c4ccccc4)C21)C3(C)C (configuration not stated) + CCn1c(-c2cc(N3CCN(C)CC3)cnc2C(C)OC)c2c3cc(ccc31)-c1csc(n1)CC(NC(=O)C1CC1C)C(=O)N1CCCC(N1)C(=O)OCC(C)(C)C2
1

Determine whether this compound shows viability, T/C lower than 50% (ties excluded): O=C(c1ccc(F)c(F)c1Nc1ccc(I)cc1F)N1CC(O)([C@@H]2CCCCN2)C1 + CCn1c(-c2cc(N3CCN(C)CC3)cnc2C(C)OC)c2c3cc(ccc31)-c1csc(n1)CC(NC(=O)C1CC1C)C(=O)N1CCCC(N1)C(=O)OCC(C)(C)C2
1

Determine whether this compound shows viability, T/C lower than 50% (ties excluded): C=CC(=O)N1CCN(c2nc(OCC3CCCN3C)nc3c(F)c(-c4nc(N)cc(C)c4C(F)(F)F)c(Cl)cc23)C(C)C1 (configuration not stated) + CCn1c(-c2cc(N3CCN(C)CC3)cnc2C(C)OC)c2c3cc(ccc31)-c1csc(n1)CC(NC(=O)C1CC1C)C(=O)N1CCCC(N1)C(=O)OCC(C)(C)C2
1

Determine whether this compound shows viability, T/C lower than 50% (ties excluded): CC(=O)OC12COC1CC(O)C1(C)C(=O)C(O)C3=C(C)C(OC(=O)C(O)C(NC(=O)OC(C)(C)C)c4ccccc4)CC(O)(C(OC(=O)c4ccccc4)C21)C3(C)C (configuration not stated) + CCn1c(-c2cccnc2C(C)OC)c2c3cc(ccc31)N1CCOC(CC(NC(=O)C(C(C)C)N(C)C(=O)C3(F)CCN(C(=O)C#CC(C)(C)N(C)C)CC3)C(=O)N3CCCC(N3)C(=O)OCC(C)(C)C2)C1
0

Determine whether this compound shows viability, T/C lower than 50% (ties excluded): NC1c2ccccc2OC12CCN(c1cnc3c(N4CCCc5ncccc54)n[nH]c3n1)CC2 (configuration not stated) + CCn1c(-c2cccnc2C(C)OC)c2c3cc(ccc31)N1CCOC(CC(NC(=O)C(C(C)C)N(C)C(=O)C3(F)CCN(C(=O)C#CC(C)(C)N(C)C)CC3)C(=O)N3CCCC(N3)C(=O)OCC(C)(C)C2)C1
0

Determine whether this compound shows viability, T/C lower than 50% (ties excluded): CC1(O)CCCC1n1c(=O)c(C(F)F)cc2cnc(NC3CCN(S(C)(=O)=O)CC3)nc21 (configuration not stated) + CCn1c(-c2cccnc2C(C)OC)c2c3cc(ccc31)N1CCOC(CC(NC(=O)C(C(C)C)N(C)C(=O)C3(F)CCN(C(=O)C#CC(C)(C)N(C)C)CC3)C(=O)N3CCCC(N3)C(=O)OCC(C)(C)C2)C1
0

Determine whether this compound shows viability, T/C lower than 50% (ties excluded): Nc1ccn(C2OC(CO)C(O)C2(F)F)c(=O)n1 (configuration not stated) + CCn1c(-c2cc(N3CCN(C)CC3)cnc2C(C)OC)c2c3cc(ccc31)-c1csc(n1)CC(NC(=O)C1CC1C)C(=O)N1CCCC(N1)C(=O)OCC(C)(C)C2
1
